System: NOMO1
assayNotes: cell viability relative to DMSO control; higher = less cytotoxic
testContext: RPMI 5 mM glucose + 10% dialyzed FBS; 48 h; 5.12 µM
Under this convention, condition met denotes cell viability strictly below 90% and condition not met denotes cell viability at or above 90%.

# example entries with known answers
COc1cccc2c(NCc3ccccc3)nc(-n3c(N)nc4ccccc43)nc12 : condition not met
CCC[C@@H](C=O)NC(=O)[C@H](CC(C)C)NC(=O)[C@H](CC(C)C)NC(=O)OCc1ccccc1 : condition met
NCCCC(O)(P(=O)(O)O)P(=O)(O)O.O.O.O.[Na+] : condition not met
Cc1cccc(N(C)C(=S)Oc2ccc3ccccc3c2)c1 : condition not met
COCCCOc1ccnc(C[S+]([O-])c2nc3ccccc3[nH]2)c1C (centres undefined) : condition not met

cell viability strictly < 90% for this molecule? O=C(c1ccc(/C=C/c2n[nH]c3ccccc23)cc1)N1CCNCC1
condition met

Is it true that cell viability reported for O=C(NCCO[N+](=O)[O-])c1cccnc1 is less than 90%?
condition not met

Does the reported cell viability of the following molecule sit strictly below 90%? COc1cc(Nc2ncc(F)c(Nc3ccc4c(n3)N(COP(=O)(O)O)C(=O)C(C)(C)O4)n2)cc(OC)c1OC
condition not met

###

Test system: SEM cells
assayNotes: cell viability relative to DMSO control; higher = less cytotoxic
testContext: HPLM + 10% dialyzed FBS; 48 h; 0.000781 µM
Form field: cell viability (one value per entry).
State just the number; it will be interpreted in %.

These recorded examples may help you get a feel for the data.
CC(=O)C1=C(O)C2(C)C(=CC1=O)Oc1c(C(C)=O)c(O)c(C)c(O)c12 (centres undefined) : 83.1
CN1CC/C(CC1)=C3\c4ccccc4CC(=O)c2sccc23 : 107
COc1cccc2c(NCc3ccccc3)nc(-n3c(N)nc4ccccc43)nc12 : 81.2
CCCOc1ccc2[nH]c(NC(=O)OC)nc2c1 : 106
CN(C)/[N+]([O-])=N/Oc1cc(ON[N+](=O)N2CCN(C(=O)c3cc(Cc4n[nH]c(=O)c5ccccc45)ccc3F)CC2)c([N+](=O)[O-])cc1[N+](=O)[O-] : 94
COC1=CC(=CC=C1)C2=CC=C(NC(=O)/C3=C(/CCC3)C(O)=O)C(=C2)F : 103

GET /value?item= CC(C)(C)Cn1c(N)nc2ccc(-c3[nH]c(C(C)(C)C)nc3-c3ccc(F)cc3)nc21 &field=cell viability returns 97.1

Cc1cc(-c2nnc3n2CCCCC3)c(C)n1-c1ccccc1 has a reported cell viability of 110

Memo: NCCCCCC(=O)O , reported cell viability: 87.3

###

System: NOMO1
assayNotes: cell viability relative to DMSO control; higher = less cytotoxic
testContext: HPLM + 10% dialyzed FBS; 48 h; 5.12 µM
cell viability overview
Returns: string containing the number followed by the unit.

For the molecule O=C(Nc1ccc([N+](=O)[O-])cc1Cl)c1cc(Cl)ccc1O , the measured cell viability on NOMO1 was 30%

###

Tested on: SEM cells
assayNotes: AUC of viability dose-response curve (% viability x log10 dose units); higher = less sensitive
testContext: RPMI 5 mM glucose + 10% FBS; 48 h
Known AUC of viability dose-response curve of a selection of compounds
Please reply with the value in numeric form only.

Record excerpt, results attached:
CCCC1=N[N](C)C2=C1\N=C(/NC2=O)C3=CC(=CC=C3OCC)[S+]([O-])(=O)N4CCN(C)CC4 : 356
CNNCc1ccc(C(=O)NC(C)C)cc1 : 452
CNC(=O)c1cc(Oc2ccc(NC(=O)Nc3ccc(Cl)c(C(F)(F)F)c3)cc2)ccn1 : 313
CC[C@@H](C(N)=O)N1CCCC1=O : 420

Short answer for CN(C)CC[C@H](CSc1ccccc1)Nc1ccc([S+](=O)([O-])NC(=O)c2ccc(N3CCN(Cc4ccccc4-c4ccc(Cl)cc4)CC3)cc2)cc1[N+](=O)[O-] : AUC of viability dose-response curve was 218

Per the record, O=C(C1CC1)N1CC[C@@H](Cn2c(-c3ccc(-c4ccc5occc5c4)cc3)nc3cnccc32)C1 has AUC of viability dose-response curve of 465

###

Test system: NOMO1
assayNotes: cell viability relative to DMSO control; higher = less cytotoxic
testContext: HPLM + 10% dialyzed FBS; 48 h; 0.19 µM
reportedMetric: cell viability (%)
# value in %; strip the unit string

COc1ccc(CC2c3cc(OC)c(OC)cc3CC[N+]2(C)CCC(=O)OCCCCCOC(=O)CC[N+]2(C)CCc3cc(OC)c(OC)cc3C2Cc2ccc(OC)c(OC)c2)cc1OC (stereo unspecified) : 98.8

Continue with the next molecule.
Record OC1=CC2=C(C(=O)\C=C(/O2)C3=CC=CC=C3)C(=C1O)O has NOMO1 cell viability equal to 106

###

System: P12-Ichikawa
assayNotes: cell viability relative to DMSO control; higher = less cytotoxic
testContext: RPMI 5 mM glucose + 10% FBS; 48 h; 0.0632 µM
reportedMetric: cell viability (%)
Give your result in % as a bare value.

CCCCOc1ccc(CC(=O)NO)cc1 : 109
COC(=O)Nc1ccc(-c2nc(N3CCOCC3)c3cnn(C4CCN(Cc5cccnc5)CC4)c3n2)cc1 : 98.3
CCCCCCCCOc1ccccc1C(=O)Nc1ccc(C(=O)OCC[N+](C)(CC)CC)cc1 : 104
O=C([O-])[C@H](CC(=O)N1C[C@H]2CCCC[C@H]2C1)Cc1ccccc1 : 134
NCCCC(O)(P(=O)(O)O)P(=O)(O)O.O.O.O.[Na+] : 119

Reported cell viability (P12-Ichikawa) for entry N#CC1(c2ccc(NC(=O)c3cccnc3NCc3ccncc3)cc2)CCCC1 is 122

Observed cell viability on P12-Ichikawa, entry C[C@@H](NCc1cc2ccccc2[nH]1)c1cccc2ccccc12 , equals 92.9

###

Test system: SEM cells
assayNotes: cell viability relative to DMSO control; higher = less cytotoxic
testContext: RPMI 5 mM glucose + 10% dialyzed FBS; 48 h; 15.4 µM
reportedMetric: cell viability (%)
Record the value in %, omitting the unit from your answer.

Before answering, review these 2 worked examples.
Cn1cnc(-c2cc3nccc(Oc4ccc(NC(=S)NC(=O)Cc5ccccc5)cc4F)c3s2)c1 : 20.1
CCCC1=N[N](C)C2=C1\N=C(/NC2=O)C3=CC(=CC=C3OCC)[S+]([O-])(=O)N4CCN(C)CC4 : 61.9

Lookup result for Cc1cc(-c2nnc3n2CCCCC3)c(C)n1-c1ccccc1 ; measured cell viability: 126

###

Tested on: NOMO1
assayNotes: AUC of viability dose-response curve (% viability x log10 dose units); higher = less sensitive
testContext: RPMI 5 mM glucose + 10% FBS; 48 h
reportedMetric: AUC of viability dose-response curve
Could you keep your reply to the number by itself?

Solved entries:
CC[C@@H](C(N)=O)N1CCCC1=O : 466
NC/1=N/C(=O)N(C[C@@H](CO)OC[P](O)(O)=O)/C=C1 : 460
CO[C@H]1/C=C/O[C@@]2(C)Oc3c(C)c(O)c4c(O)c(c(/C=N/N5CCN(C)CC5)c(O)c4c3C2=O)NC(=O)/C(C)=C\C=C\[C@H](C)[C@H](O)[C@@H](C)[C@@H](O)[C@@H](C)[C@H](OC(C)=O)[C@@H]1C : 461
Cn1c(=O)c2[nH]cnc2n(C)c1=O : 454
Cc1cc(SCc2sc(-c3ccc(C(F)(F)F)cc3)nc2C)ccc1OCC(=O)O : 443
CCOC(CN1C(=O)[C@](CC(=O)Nc2ccc(C)cc2)(NC(=O)Nc2ccc(C)cc2)c2ccccc21)OCC : 460
O=C(NCCO[N+](=O)[O-])c1cccnc1 : 472
COC/1=C/[C@@H]2[C@@H]3CC4=C(C(=C(OC)C=C4)O)[C@]2(CCN3C)CC1=O : 459
O=P1(N(CCCl)CCCl)NCCCO1 (centres undefined) : 436
O=C(O)[C@@H](c1ccc(OCc2ccc3ccccc3n2)cc1)C1CCCC1 : 470

// sample Cc1ccc(NC(=O)c2cccc(N(C)C)c2)cc1NC(=O)c1ccc(O)cc1 , its AUC of viability dose-response curve was 464

Reported AUC of viability dose-response curve ( Cc1cc(-c2ncc(CC(=O)Nc3ccc(-c4cnccn4)cn3)cc2C)ccn1 ) = 466

The compound listed as C=C[C@H]1CN2CCC1C[C@@H]2[C@@H](O)c1ccnc2ccccc12 (some centres undefined) shows AUC of viability dose-response curve equal to 422

# compound C[C@]12CC[C@@H]3c4ccc(O)cc4CC[C@H]3[C@@H]1CC[C@@H]2O ; its AUC of viability dose-response curve = 453

// AUC of viability dose-response curve value for Nc1nc(Nc2ccc([S+](N)(=O)[O-])cc2)nn1C(=O)c1c(F)cccc1F : 410

For reference, reported AUC of viability dose-response curve for NCCCC(O)(P(=O)(O)O)P(=O)(O)O.O.O.O.[Na+] stands at 439

Data point: CCCC(CCC)C(=O)[O-] ; AUC of viability dose-response curve = 469

Summary for this compound, NCCS(=O)(=O)O : AUC of viability dose-response curve is 455

Documented AUC of viability dose-response curve of CO[C@@H]1[C@@H](OC(N)=O)[C@@H](O)[C@H](OC2=CC=C3\C(=C(NC(=O)C4=CC=C([O-])C(=C4)CC=C(C)C)/C(=O)OC3=C2C)O)OC1(C)C : 451

Cited source: the supplement of paper PMC11451515
